- protocol_description: Gal4-VP16 luciferase reporter inhibitors, counter-screen for COUP-TFII antagonist project, cell-based, luminescence, HEK293 (AID 687007)
- particulars: at 8.5 µM
Some of the results follow. Activity calls are given as the source filed them. Rule as the data show it: active = inhibition above about 13%; inactive = the rest.
Outcome codes: active, inactive

compound	label_value
CCCCCCCCCCCCn1ccc(=N)cc1	active
CCOc1ccc(-c2cc(C)[n+](CCN(CC)CC)c(-c3ccc(OCC)cc3)c2)cc1	active
CCC(C)(O)C(=O)OC1C(=O)OC2CC3C(C)=CC(=O)C(O)C3(C)C3C4(O)OCC23C1C(C)C4O (stereo not given)	active
COC1C(O)C(C)OC(OC2CCC3(C=O)C(CCC4C3CCC3(C)C(C5=CC(=O)OC5)CCC43O)C2)C1O (stereo not given)	active
C[C@]12CC[C@H](O)C[C@H]1CC[C@@H]1C2CC[C@]2(C)[C@@H](C3=CC(=O)OC3)[C@@H](O)C[C@]12O (stereo not given in full)	inactive

====

- protocol_description: StAR promoter reporter inhibitors, counter-screen for LRH-1 inverse agonist project, cell-based, luminescence, high throughput (AID 651611)
- particulars: StAR promoter luciferase reporter counterscreen, at 3.6 µM, active compounds read high
measured_metric: inhibition (%)

compound	reported_value
C=C1C(=O)O[C@@H]2C[C@@H](C)[C@@H]3C4OC4C(=O)[C@@]3(C)[C@@H](O)[C@H]12 (some centres undefined)	-30
CCOc1cc(C=O)ccc1O	-4.06
CC1=CC2OC3CC4OC(=O)C=CC=CC(C(C)O)OCC(O)C(C)CC(=O)OCC2(CC1O)C4(C)C31CO1 (centres undefined)	96.3
COc1ccc(NS(=O)(=O)c2ccc(OCC(=O)N3CCN(C)CC3)cc2)cc1Cl	2.1
CCOC(=O)[C@]12Cc3c(cc(OC)c(OC)c3OC)[C@H]1N(C1CCCCC1)C(=O)c1ccccc12	45.9
COc1ccc(-c2cc(-c3ccccc3)[n+](C)c(-c3ccccc3)c2)cc1	60.2
N#Cc1ccc(Cn2cc(C=O)c3ccccc32)cc1	4.87
O=C1Nc2ccccc2/C1=C/c1cnc[nH]1	14.6
Cn1ncnc2c(=O)n(C)c(=O)nc1-2	76.9
COc1ccc(-[n+]2c(-c3ccccc3)cc(-c3ccc(C)cc3)cc2-c2ccccc2)cc1	82.7
N#CCCn1cc(C(=O)Nc2ccc([N+](=O)[O-])cc2)c(-c2ccccc2)n1	7.58
CCCCCCCCCCCCn1ccc(=N)cc1	74.4
Cc1cc(S(=O)(=O)NC(C)C)ccc1OCC(=O)N1CCN(Cc2ccc3c(c2)OCO3)CC1	16.6
CC(=O)OC1CC2OC3C=C(C)CCC3(C)C1(C)C21CO1 (centres undefined)	95.2
CCC1CN2CCc3cc(OC)c(OC)cc3C2CC1CC1NCCc2c1[nH]c1ccc(O)cc21 (centres undefined)	95.7
COC(=O)C12OCC34C(CC5C(C)=C(O)C(=O)CC5(C)C3C(O)C1O)OC(=O)C(OC(=O)/C=C(\C)C(C)C)C24 (centres undefined)	96.7
CC(C)N(C(=O)CCl)c1ccccc1	19.8
O=C(Nc1ccc(OC(=O)N2CCCCC2)cc1)N1CCOCC1	29.4
Cc1ccccc1-[n+]1c(-c2ccccc2)cc(-c2ccccc2)cc1-c1ccccc1	83.2
C[C@]12CC[C@H](O)C[C@H]1CC[C@@H]1C2CC[C@]2(C)[C@@H](C3=CC(=O)OC3)[C@@H](O)C[C@]12O (some centres undefined)	87.1
C[C@H]1CCC/C=C/[C@@H]2C[C@H](O)C[C@H]2[C@@H](O)/C=C/C(=O)O1	81.5
CCC(C)(O)C(=O)OC1C(=O)OC2CC3C(C)=CC(=O)C(O)C3(C)C3C4(O)OCC23C1C(C)C4O (centres undefined)	96.1
CC(=O)OC1(C)CC(C)C(=O)C(C(O)CC2CC(=O)NC(=O)C2)C1 (centres undefined)	94.8
COC(=O)C(C)Oc1cc(C)cc2oc(=O)c3c(c12)CCC3 (centres undefined)	47.8
CCOC(=O)[C@]12Cc3cc(OC)ccc3[C@H]1N(C1CCCCC1)C(=O)c1ccccc12	49.6
CC(=O)OC1CC(OC2C(O)CC(OC3C(O)CC(OC4CCC5(C)C(CCC6C5CCC5(C)C(C7=CC(=O)OC7)CCC65O)C4)OC3C)OC2C)OC(C)C1OC1OC(CO)C(O)C(O)C1O (centres undefined)	94.6
N#CCCn1cc(C(=O)Nc2ccccc2Br)c(-c2ccc([N+](=O)[O-])cc2)n1	18.4
C1=NCCc2c1[nH]c1ccccc21	14.4
O=Cc1cn(Cc2cccc([N+](=O)[O-])c2)c2ccccc12	65.6

The origin of these recorded values is PubChem BioAssay.
